Test system: SNB-75 CNS
experimental details: NCI tumour cell line growth inhibition, 48 h
GI50 reference

compound: Nc1ncc(-c2ccc3ncnc(N4CCc5ccc(Cl)cc54)c3c2)cn1
attribute measured: GI50
value: 0.418 µM
//
compound: COc1cc(C(=O)N2CCN(c3ccccn3)CC2)c(N)cc1OCc1ccccc1
attribute measured: GI50
value: 39.9 µM
//
compound: O=C(CI)OCC(COC(=O)CI)OC(=O)CI
attribute measured: GI50
value: 13.7 µM

GET /values?readout=GI50&system=SNB-75 CNS&item= COC1C(O)CC(OC2CC(OC3CC(O[C@@H]4C(=O)c5c(cc6cc(OC7CC(OC8CC(O)C(O)C(C)O8)C(O)C(C)O7)c(C)c(O)c6c5O)CC4[C@H](OC)C(=O)C(C)=O)OC(C)C3O)OC(C)C2O)OC1C (stereo partly specified)
0.00678 µM

GET /values?readout=GI50&system=SNB-75 CNS&item= CCC(=O)O[C@@H]([C@H](C)[C@H]1OC(CC)=C(C)C(=O)[C@@H]1C)[C@@H](C)C(=O)CC
> 100 µM

GET /values?readout=GI50&system=SNB-75 CNS&item= OCc1cn(Cc2ccc(Cl)cc2)c2ccccc12
4.52 µM

====

Test system: XF 498 CNS
experimental details: NCI tumour cell line growth inhibition, 48 h
attribute measured: TGI (µM)
// return numeric value only (unit: µM, not printed)

In the examples that follow, each entry is paired with its recorded TGI.
molecule: CCOc1ccc(Nc2nc(C)c(C(=O)/C=C/c3ccc(Cl)cc3Cl)s2)cc1
target of assay: XF 498 CNS
value: 39.1
--
molecule: Cc1[nH]c2ccccc2c1-c1n[nH]c(=O)c2ccccc12
target of assay: XF 498 CNS
value: 76.2
--
molecule: CC(C)=CC1CC(=O)C1(C)Sc1ccccc1 (centres undefined)
target of assay: XF 498 CNS
value: 95.7

Consider the record given below.
Entry under review: OC[C@@H]1CC#C/C=C\C#CC[C@@H]1CO . Reported TGI?
6.99

====

TGI reference
System: DU-145 prostate
experimental details: NCI tumour cell line growth inhibition, 48 h

In the examples that follow, each entry is paired with its recorded TGI.
molecule: C(=Nc1ccccc1C1SCCCS1)c1ccccc1
TGI: > 100 µM
--
molecule: COc1cc2c3c(n(CCCn4ccnc4)c(=O)c2cc1OC)-c1cc2c(cc1C3=O)OCO2
TGI: > 100 µM
--
molecule: CN(C)CCOc1ccc2[nH]c(C(=O)N3CC(CCl)c4c3cc(NC(=O)OCc3ccc([N+](=O)[O-])cc3)c3ccccc43)cc2c1 (stereo unspecified)
TGI: 1.9 µM
--
molecule: CCOC(=O)c1nnsc1NC(=O)NN
TGI: > 100 µM
--
molecule: CC12OC(CC(O)C1O)n1c3ccccc3c3c4c(c5c6ccccc6n2c5c31)C(=O)N(CCN1CCCC1)C4=O (stereo unspecified)
TGI: 5.82 µM

GET /values?readout=TGI&system=DU-145 prostate&item= COc1ccc2c(NCCCCCCCCNc3c4ccccc4nc4cc(OC)ccc34)c3ccccc3nc2c1
0.339 µM

GET /values?readout=TGI&system=DU-145 prostate&item= CC(C)CC(NC(=O)C(CSc1ccc([N+](=O)[O-])cc1)Cc1ccccc1)C(=O)Nc1ccccc1 (stereo unspecified)
> 100 µM

GET /values?readout=TGI&system=DU-145 prostate&item= COc1ccc(-n2c(N)c(C#N)c(C#N)c2-c2cccc([N+](=O)[O-])c2)cc1
> 100 µM

GET /values?readout=TGI&system=DU-145 prostate&item= COc1ccc(C(=O)/C=C/c2c(OC)cc(OC)cc2OC)c(OC)c1
> 100 µM

GET /values?readout=TGI&system=DU-145 prostate&item= S=C(S)N1CCOCC1
> 100 µM

GET /values?readout=TGI&system=DU-145 prostate&item= CCCCN(CCCC)CC(O)c1cc(-c2ccc(Cl)c(Cl)c2)nc2c(Cl)cc(Cl)cc12 (stereo unspecified)
> 100 µM

GET /values?readout=TGI&system=DU-145 prostate&item= COc1ccc(N=NC(=O)NC(CC(C)C)C(=O)NC(Cc2ccccc2)C(=O)O)cc1 (stereo unspecified)
> 100 µM

GET /values?readout=TGI&system=DU-145 prostate&item= CCCCCCCCCCCCCCCCSC(=NCC)NCC
2.98 µM

GET /values?readout=TGI&system=DU-145 prostate&item= CN(C)c1ccc(/C=C2\C[C@H]3[C@@H]4CCc5cc(OCCN6CCCC6)ccc5[C@H]4CC[C@]3(C)[C@H]2O)cc1
26.2 µM

GET /values?readout=TGI&system=DU-145 prostate&item= CC(C)Cc1ccc(C(C)C(=O)NCc2ccc(Cn3c(=O)sn(CCCCl)c3=O)cc2)cc1 (stereo unspecified)
2.82 µM

GET /values?readout=TGI&system=DU-145 prostate&item= CN(C)c1ccc(/C=C(\C#N)c2nc(-c3cc4ccccc4oc3=O)cs2)cc1
> 50 µM

GET /values?readout=TGI&system=DU-145 prostate&item= O=C1c2ccccc2-c2c1c1ccc([N+](=O)[O-])cc1c(=O)n2CCCN1CCOCC1
3.09 µM

GET /values?readout=TGI&system=DU-145 prostate&item= O=C(CI)OCC(COC(=O)CI)OC(=O)CI
22.3 µM

GET /values?readout=TGI&system=DU-145 prostate&item= CCCCCCCCCc1c(Cl)nc(Cl)nc1Cl
31.2 µM

GET /values?readout=TGI&system=DU-145 prostate&item= CCSC(=O)N1c2ccc(OC)cc2C=CC1C#N (stereo unspecified)
0.0105 µM

GET /values?readout=TGI&system=DU-145 prostate&item= COc1ccc(O)c2c(=O)c3c(OC)cc4c(c3oc12)[C@@H]1C=CO[C@@H]1O4
> 34.9 µM

GET /values?readout=TGI&system=DU-145 prostate&item= CCOc1ccccc1N1CSc2nnc(-c3ccccc3)n2C1
> 100 µM

GET /values?readout=TGI&system=DU-145 prostate&item= CC(=O)N/N=C1/NN(C(C)=O)C2(S1)C(=O)Nc1ccc(C)cc12 (stereo unspecified)
> 100 µM

GET /values?readout=TGI&system=DU-145 prostate&item= O=C(O)CCc1ccc(-c2ccccc2)[nH]1
> 100 µM

GET /values?readout=TGI&system=DU-145 prostate&item= CCN(Cc1ccccc1F)c1ccc(CO)c(Cl)c1
> 60 µM

GET /values?readout=TGI&system=DU-145 prostate&item= CC(C)(C)OC/C=C(\Br)CO
> 100 µM

Source of measurements: PubChem BioAssay (NCI)
